# study_target: 5-hydroxytryptamine receptor 7 (Homo sapiens)
# Sequence (P34969 whole entry): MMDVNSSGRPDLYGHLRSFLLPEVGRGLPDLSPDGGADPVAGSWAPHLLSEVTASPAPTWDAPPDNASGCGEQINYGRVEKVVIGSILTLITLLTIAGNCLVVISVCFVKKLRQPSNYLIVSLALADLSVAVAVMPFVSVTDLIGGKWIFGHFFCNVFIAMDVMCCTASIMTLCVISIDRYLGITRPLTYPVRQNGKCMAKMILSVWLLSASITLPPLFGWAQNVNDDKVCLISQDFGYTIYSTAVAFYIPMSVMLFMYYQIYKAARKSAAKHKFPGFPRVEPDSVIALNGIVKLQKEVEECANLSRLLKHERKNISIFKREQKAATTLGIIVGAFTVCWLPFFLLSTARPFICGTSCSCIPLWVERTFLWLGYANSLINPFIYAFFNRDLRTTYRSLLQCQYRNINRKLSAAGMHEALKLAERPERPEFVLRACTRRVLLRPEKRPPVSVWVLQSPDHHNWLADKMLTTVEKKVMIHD
pKi: −log10 of the molar value.
reported_endpoint: pKi

| molecule | readout_value |
| --- | --- |
| COc1cnccc1Nc1nc(-c2nn(Cc3c(F)cc(OCCO)cc3F)c3ccccc23)ncc1OC | < 5.00 |

---

# study_target: Epithelial discoidin domain-containing receptor 1 (Homo sapiens)
# Sequence (Q08345 whole entry, the tested form may be a part): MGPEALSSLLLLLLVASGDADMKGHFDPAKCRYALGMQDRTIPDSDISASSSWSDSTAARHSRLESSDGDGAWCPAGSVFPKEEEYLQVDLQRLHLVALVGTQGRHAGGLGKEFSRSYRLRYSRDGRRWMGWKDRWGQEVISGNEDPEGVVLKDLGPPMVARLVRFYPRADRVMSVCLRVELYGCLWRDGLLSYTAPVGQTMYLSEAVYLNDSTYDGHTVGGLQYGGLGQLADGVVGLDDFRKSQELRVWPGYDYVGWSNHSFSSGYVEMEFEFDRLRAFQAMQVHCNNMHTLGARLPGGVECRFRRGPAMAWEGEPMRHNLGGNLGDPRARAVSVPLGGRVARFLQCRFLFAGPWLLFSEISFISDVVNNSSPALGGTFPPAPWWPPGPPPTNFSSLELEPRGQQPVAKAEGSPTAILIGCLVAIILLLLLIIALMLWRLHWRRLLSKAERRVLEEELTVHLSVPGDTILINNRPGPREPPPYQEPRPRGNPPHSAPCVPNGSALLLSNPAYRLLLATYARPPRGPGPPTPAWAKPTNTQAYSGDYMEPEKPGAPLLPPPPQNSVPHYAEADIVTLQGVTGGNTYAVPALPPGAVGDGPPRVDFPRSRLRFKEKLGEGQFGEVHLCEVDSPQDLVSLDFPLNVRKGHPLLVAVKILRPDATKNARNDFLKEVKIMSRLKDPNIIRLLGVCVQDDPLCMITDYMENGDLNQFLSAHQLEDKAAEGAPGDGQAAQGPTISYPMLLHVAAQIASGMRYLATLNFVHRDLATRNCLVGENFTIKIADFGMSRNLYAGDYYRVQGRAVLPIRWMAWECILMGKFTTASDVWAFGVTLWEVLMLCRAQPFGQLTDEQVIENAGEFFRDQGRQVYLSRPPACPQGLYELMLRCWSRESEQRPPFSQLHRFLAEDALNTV
reported_endpoint: Kd (nM)

| molecule | reported_endpoint | readout_value |
| --- | --- | --- |
| COc1cnccc1Nc1nc(-c2nn(Cc3c(F)cc(OCCO)cc3F)c3ccccc23)ncc1OC | Kd | 2300 |

---

Target sequence: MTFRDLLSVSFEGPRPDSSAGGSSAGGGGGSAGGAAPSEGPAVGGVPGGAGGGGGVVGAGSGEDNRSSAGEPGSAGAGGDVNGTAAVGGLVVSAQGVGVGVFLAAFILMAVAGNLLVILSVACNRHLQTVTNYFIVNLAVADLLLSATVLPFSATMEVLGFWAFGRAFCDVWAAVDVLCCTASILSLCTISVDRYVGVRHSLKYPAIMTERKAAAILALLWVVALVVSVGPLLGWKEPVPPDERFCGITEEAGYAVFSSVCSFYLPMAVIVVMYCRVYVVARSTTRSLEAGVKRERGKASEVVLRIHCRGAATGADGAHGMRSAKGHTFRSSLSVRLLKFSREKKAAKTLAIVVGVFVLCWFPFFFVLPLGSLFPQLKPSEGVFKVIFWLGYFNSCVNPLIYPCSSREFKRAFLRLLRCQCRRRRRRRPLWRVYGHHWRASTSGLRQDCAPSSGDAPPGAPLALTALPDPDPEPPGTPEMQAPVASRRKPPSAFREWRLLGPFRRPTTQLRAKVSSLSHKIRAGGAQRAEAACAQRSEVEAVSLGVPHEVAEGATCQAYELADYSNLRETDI
pKi: −log10 of the molar value.

| molecule | pKi |
| --- | --- |
| COc1cnccc1Nc1nc(-c2nn(Cc3c(F)cc(OCCO)cc3F)c3ccccc23)ncc1OC | < 5.00 |

---

# study_target: MAO-A (Homo sapiens)
# Sequence (P21397 whole entry): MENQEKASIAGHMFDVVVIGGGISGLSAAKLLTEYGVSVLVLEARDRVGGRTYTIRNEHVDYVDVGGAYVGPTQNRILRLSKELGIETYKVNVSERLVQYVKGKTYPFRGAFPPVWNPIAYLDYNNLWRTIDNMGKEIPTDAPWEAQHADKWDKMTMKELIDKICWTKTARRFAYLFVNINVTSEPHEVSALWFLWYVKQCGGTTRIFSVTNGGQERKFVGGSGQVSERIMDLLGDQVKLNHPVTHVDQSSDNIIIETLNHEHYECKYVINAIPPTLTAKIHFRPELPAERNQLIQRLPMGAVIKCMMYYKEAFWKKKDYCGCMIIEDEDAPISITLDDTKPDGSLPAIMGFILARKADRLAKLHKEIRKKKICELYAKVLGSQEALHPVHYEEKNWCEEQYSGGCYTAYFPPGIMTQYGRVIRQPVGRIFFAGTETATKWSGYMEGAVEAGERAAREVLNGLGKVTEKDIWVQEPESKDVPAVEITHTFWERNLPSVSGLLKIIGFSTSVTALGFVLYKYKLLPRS
# protocol_description: Inhibition of Monoamine Oxidase MAO-A at compound concentration of 10.0 uM in the Eurofins-Panlabs enzyme assay (Eurofins_assay_140010)
# Parameters: substrate with concentration 50 uM Kynuramine, incubation time 60 min, incubation temperature 37 C
# measurement_conditions: human recombinant MAO-A expressed in insect Hi5 cells, probe Kynuramine (50 uM), compound concentration 10 uM

| molecule | inhibition at 60 min, 10 µM |
| --- | --- |
| COc1cnccc1Nc1nc(-c2nn(Cc3c(F)cc(OCCO)cc3F)c3ccccc23)ncc1OC | 7% (not active) |

---

# study_target: 5-hydroxytryptamine receptor 1D (Homo sapiens, UniProt P28221)
# Sequence (P28221 whole entry): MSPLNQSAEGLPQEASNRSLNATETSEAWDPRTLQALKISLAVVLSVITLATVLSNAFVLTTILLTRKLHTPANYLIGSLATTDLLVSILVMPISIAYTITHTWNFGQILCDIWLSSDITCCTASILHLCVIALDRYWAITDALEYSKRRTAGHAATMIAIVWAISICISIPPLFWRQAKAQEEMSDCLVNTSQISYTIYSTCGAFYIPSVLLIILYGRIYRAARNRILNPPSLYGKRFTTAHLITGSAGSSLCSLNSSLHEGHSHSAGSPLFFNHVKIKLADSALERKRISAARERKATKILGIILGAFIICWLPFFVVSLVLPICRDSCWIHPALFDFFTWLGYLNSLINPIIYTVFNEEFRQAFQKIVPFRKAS

| molecule | Ki |
| --- | --- |
| COc1ccccc1Nc1nc(-c2nn(Cc3c(F)cc(OCCCO)cc3F)c3ccccc23)ncc1OC | 8.97 µM |

---

# study_target: Sodium-dependent dopamine transporter (Homo sapiens, UniProt Q01959)
# Sequence (Q01959 whole entry): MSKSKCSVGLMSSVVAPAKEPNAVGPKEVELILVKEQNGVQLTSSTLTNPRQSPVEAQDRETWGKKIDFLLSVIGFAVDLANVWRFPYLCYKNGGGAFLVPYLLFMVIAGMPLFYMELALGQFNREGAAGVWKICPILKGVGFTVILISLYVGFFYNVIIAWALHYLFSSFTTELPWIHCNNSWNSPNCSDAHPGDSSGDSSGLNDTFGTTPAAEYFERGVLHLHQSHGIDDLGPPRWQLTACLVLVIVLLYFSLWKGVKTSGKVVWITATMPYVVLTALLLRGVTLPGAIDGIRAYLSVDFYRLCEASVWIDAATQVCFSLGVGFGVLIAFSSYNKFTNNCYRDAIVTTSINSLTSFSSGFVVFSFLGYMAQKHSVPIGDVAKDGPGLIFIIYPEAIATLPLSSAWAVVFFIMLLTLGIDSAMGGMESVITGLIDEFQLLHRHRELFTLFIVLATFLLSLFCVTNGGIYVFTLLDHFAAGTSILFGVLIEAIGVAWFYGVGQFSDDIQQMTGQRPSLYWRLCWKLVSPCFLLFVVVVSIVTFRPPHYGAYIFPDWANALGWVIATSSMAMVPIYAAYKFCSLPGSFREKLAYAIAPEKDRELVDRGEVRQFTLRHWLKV
# protocol_description: GPCRScan assay: inhibition of DAT
# Set-up: radioligand conc. used [nm] 3.6 – 16.0, parental cells stable HEK
# measurement_conditions: read-out: Ki
Listed below: Ki values for each entry.
reported_endpoint: Ki (µM)

| molecule | reported_endpoint | limit_operator | readout_value |
| --- | --- | --- | --- |
| COc1cnccc1Nc1nc(-c2nn(Cc3c(F)cc(OCCO)cc3F)c3ccccc23)ncc1OC | Ki | > | 10 |
| COc1ccccc1Nc1nc(-c2nn(Cc3c(F)cc(OCCCO)cc3F)c3ccccc23)ncc1OC | Ki | = | 1.63 |

---

# study_target: L-type calcium channel, benzothiazepine site (Cav1.2 alpha-1C) (Homo sapiens, UniProt Q13936)
# protocol_description: Inhibition of Calcium Channel L-Type, Benzothiazepine at 10 µM in the Eurofins-Panlabs radioligand binding assay (Eurofins_assay_214510)
# Parameters: ligand concentration 2 nM, non-specific ligand with concentration 10 µM Diltiazem, incubation time 3h, incubation temperature 4 °C
# measurement_conditions: male, Wistar, rat, rat whole brain preparation, probe [3H] Diltiazem; compound concentration 10 uM; target entry is the homologue from another species

| molecule | inhibition at 3 h, 10 µM |
| --- | --- |
| COc1cnccc1Nc1nc(-c2nn(Cc3c(F)cc(OCCO)cc3F)c3ccccc23)ncc1OC | -10% (not active) |

---

# study_target: Alpha-2C adrenergic receptor (Homo sapiens, UniProt P18825)
# Sequence (P18825 whole entry): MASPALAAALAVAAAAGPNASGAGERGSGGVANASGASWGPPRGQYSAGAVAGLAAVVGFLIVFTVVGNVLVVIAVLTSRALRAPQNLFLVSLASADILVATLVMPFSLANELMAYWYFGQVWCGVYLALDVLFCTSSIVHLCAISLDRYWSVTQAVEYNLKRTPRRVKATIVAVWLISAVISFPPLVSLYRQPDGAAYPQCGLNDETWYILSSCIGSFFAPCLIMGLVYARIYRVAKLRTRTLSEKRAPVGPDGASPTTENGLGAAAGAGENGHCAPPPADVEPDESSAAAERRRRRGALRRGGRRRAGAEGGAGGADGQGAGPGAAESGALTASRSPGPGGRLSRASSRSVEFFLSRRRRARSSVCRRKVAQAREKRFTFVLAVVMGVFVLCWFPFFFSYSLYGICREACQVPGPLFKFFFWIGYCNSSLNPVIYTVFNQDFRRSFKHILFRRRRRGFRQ
pKi: −log10 of the molar value.

| molecule | pKi |
| --- | --- |
| COc1cnccc1Nc1nc(-c2nn(Cc3c(F)cc(OCCO)cc3F)c3ccccc23)ncc1OC | < 5.00 |

---

# study_target: voltage-gated sodium channel, site 2 (Rattus norvegicus, UniProt F1LQQ7+O08562+O88420+O88457+P04774+P04775+P08104+P15389+P15390+Q62968)
# protocol_description: Inhibition of Sodium Channel, Site 2 at 10 µM in the Eurofins-Panlabs radioligand binding assay (Eurofins_assay_279510)
# Format: protein assay
# Parameters: ligand concentration 5 nM, non-specific ligand with concentration 100 µM Veratridine, incubation time 60 min, incubation temperature 37 °C
# measurement_conditions: male, Wistar, rat whole brain (except cerebellum) membranes, probe [3H] Batrachotoxinin, compound concentration 10 uM

| molecule | inhibition at 60 min, 10 µM [%] |
| --- | --- |
| COc1cnccc1Nc1nc(-c2nn(Cc3c(F)cc(OCCO)cc3F)c3ccccc23)ncc1OC | 53 |

---

# study_target: Sigma intracellular receptor 2 (Homo sapiens, UniProt Q5BJF2)
# Sequence (Q5BJF2 whole entry): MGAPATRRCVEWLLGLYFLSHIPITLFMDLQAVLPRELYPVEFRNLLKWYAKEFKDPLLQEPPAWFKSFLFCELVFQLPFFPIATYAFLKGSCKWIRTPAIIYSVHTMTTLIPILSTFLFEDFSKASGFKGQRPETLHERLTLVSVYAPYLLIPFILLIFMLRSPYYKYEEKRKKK
# protocol_description: GPCRScan assay: inhibition of Sigma 2
pKi: −log10 of the molar value.

| molecule | pKi |
| --- | --- |
| COc1ccccc1Nc1nc(-c2nn(Cc3c(F)cc(OCCCO)cc3F)c3ccccc23)ncc1OC | 6.18 |
